Assayed System: electric eel acetylcholinesterase (eeAChE) (Electrophorus electricus, UniProt O42275)
Construct: AChE (from electric eel) and BChE (from horse serum); from tissue
Sequence (O42275 24-633): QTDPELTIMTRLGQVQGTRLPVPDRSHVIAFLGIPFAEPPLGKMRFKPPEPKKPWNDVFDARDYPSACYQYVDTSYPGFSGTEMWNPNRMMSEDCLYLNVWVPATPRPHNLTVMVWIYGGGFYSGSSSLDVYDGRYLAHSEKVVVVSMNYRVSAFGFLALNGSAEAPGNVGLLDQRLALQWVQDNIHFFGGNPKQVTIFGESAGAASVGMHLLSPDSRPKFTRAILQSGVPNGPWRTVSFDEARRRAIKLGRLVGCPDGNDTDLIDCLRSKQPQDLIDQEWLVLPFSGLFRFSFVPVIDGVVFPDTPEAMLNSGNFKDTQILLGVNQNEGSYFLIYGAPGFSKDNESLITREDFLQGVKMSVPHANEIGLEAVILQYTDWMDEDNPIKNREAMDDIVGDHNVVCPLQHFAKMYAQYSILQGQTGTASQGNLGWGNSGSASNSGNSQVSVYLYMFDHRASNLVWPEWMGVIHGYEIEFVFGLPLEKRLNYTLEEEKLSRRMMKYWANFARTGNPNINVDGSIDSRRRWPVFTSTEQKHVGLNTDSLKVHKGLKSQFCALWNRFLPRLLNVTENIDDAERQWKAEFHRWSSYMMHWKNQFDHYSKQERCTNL
Test Description: biochemical
Type: biochemical
Condition Notes: electric eel AChE; Cheng–Prousoff from IC50; read-out: Ki AChE
// reported Ki per item
Metric Name: Ki (nM)

1. CC(C)N1CCC(C(=O)Nc2cccc(OCc3ccc(-c4ccc(Cl)cc4)cc3)c2)CC1
3330
2. O=C(Nc1cccc(OCc2cccc(F)c2)c1)C1CCN(c2ccncc2)CC1
58
3. O=C(Nc1cccc(COc2ccc(F)cc2)c1)C1CCN(c2ccncc2)CC1
165
4. CC(C)N1CCC(C(=O)Nc2ccccc2OCc2cc(-c3ccc(Cl)cc3)on2)CC1
11500

====

Assayed System: horse serum butyrylcholinesterase (eqBChE) (Equus caballus)
Construct: AChE (from electric eel) and BChE (from horse serum); from tissue; host or cells: horse serum
Test Description: biochemical
Condition Notes: horse serum BChE; Cheng–Prousoff from IC50; read-out: Ki BChE
Metric Name: Ki (µM)

1. O=C(Nc1ccc(OCc2cccc(F)c2)cc1)C1CCN(c2ccncc2)CC1
0.425
2. O=C(Nc1cccc(OCc2ccc(F)cc2)c1)C1CCN(c2ccncc2)CC1
1.21
3. N=C(N)N1CCC(C(=O)Nc2cccc(OCc3cc(-c4ccc(Cl)cc4)on3)c2)CC1
7.67
4. CC(C)N1CCC(C(=O)Nc2ccccc2OCc2ccc(F)cc2)CC1
0.378
5. O=C(Nc1cccc(OCCc2ccc(F)cc2)c1)C1CCN(c2ccncc2)CC1
5.63
6. N=C(N)N1CCC(C(=O)Nc2cccc(OCc3ccc(F)cc3)c2)CC1
0.26
7. CC(C)N1CCC(C(=O)Nc2cccc(OCc3cc(-c4ccc(Cl)cc4)on3)c2)CC1
3.06
8. CC(C)N1CCC(C(=O)Nc2cccc(OCc3cc(-c4ccc(Cl)s4)on3)c2)CC1
2.13
9. O=C(NCc1ccc(F)cc1)c1cccc(NC(=O)C2CCN(c3ccncc3)CC2)c1
0.37
10. O=C(Nc1ccc(F)cc1)c1cccc(NC(=O)C2CCN(c3ccncc3)CC2)c1
8.25
11. O=C(Nc1cccc(CCc2ccc(F)cc2)c1)C1CCN(c2ccncc2)CC1
8.2
12. O=C(Nc1cccc(OCc2cccc(F)c2)c1)C1CCN(c2ccncc2)CC1
6.95
13. O=C(Nc1ccc(OCc2ccc(F)cc2)cc1)C1CCN(C2CCCC2)CC1
0.255

====

Assayed System: horse serum butyrylcholinesterase (eqBChE) (Equus caballus, UniProt P81908)
Construct: AChE (from electric eel) and BChE (from horse serum); from tissue; host or cells: horse serum
Sequence (P81908 whole entry): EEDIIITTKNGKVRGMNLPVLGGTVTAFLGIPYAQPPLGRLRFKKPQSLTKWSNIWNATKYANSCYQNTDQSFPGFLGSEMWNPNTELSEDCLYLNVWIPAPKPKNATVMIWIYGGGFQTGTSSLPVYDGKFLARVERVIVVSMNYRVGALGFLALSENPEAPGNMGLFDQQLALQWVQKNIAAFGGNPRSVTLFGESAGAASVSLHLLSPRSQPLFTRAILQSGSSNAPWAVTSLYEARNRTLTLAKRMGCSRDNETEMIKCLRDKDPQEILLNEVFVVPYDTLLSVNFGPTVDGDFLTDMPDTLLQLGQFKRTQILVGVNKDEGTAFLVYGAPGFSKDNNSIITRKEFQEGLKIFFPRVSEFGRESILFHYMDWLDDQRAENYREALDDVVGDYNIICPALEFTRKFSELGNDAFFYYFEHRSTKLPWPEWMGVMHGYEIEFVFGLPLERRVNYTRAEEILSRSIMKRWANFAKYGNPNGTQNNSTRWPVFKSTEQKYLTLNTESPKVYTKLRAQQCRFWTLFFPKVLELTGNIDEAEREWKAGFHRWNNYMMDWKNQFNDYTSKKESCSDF
Test Description: biochemical
Condition Notes: eqBChE 0.18 U/mL, butyrylthiocholine iodide 50-300 µM, inhibitor 0-1 µM; x-axis intercept; read-out: Ki eqBChE from replot of Lineweaver–Burk slopes versus [I]
Metric Name: Ki (nM)

1. CC(C)N1CCC(C(=O)Nc2cccc(OCc3ccc(F)cc3)c2)CC1
104

====

Assayed System: bovine thrombin (Bos taurus, UniProt P00735)
Construct: purchased Sigma-Aldrich (Milan, Italy)
Test Description: biochemical
Condition Notes: at 50 μM; bovine serum thrombin; read-out: inhibition percentage ± SEM, thr
inhibition at 50 µM below 10% gives 0.0; inhibition at 50 µM at or above it gives 1.0.

1. O=C(Nc1ccccc1OCc1ccc(F)cc1)C1CCN(C2CCCC2)CC1
1.0
2. CC(C)N1CCC(C(=O)Nc2ccccc2OCc2ccc(Cl)cc2)CC1
1.0
3. CC(C)N1CCC(C(=O)Nc2cccc(OCc3cc(-c4ccc(Cl)cc4)on3)c2)CC1
1.0
4. O=C(Nc1ccc(OCc2ccc(F)cc2)cc1)C1CCN(C2CCCC2)CC1
1.0
5. CC(C)N1CCC(C(=O)Nc2cccc(OCc3ccc(-c4ccc(Cl)cc4)cc3)c2)CC1
0.0
6. CC(C)N1CCC(C(=O)Nc2ccc(OCc3ccc(F)cc3)cc2)CC1
1.0
7. CC(C)N1CCC(C(=O)Nc2cccc(OCc3ccc(F)cc3)c2)CC1
0.0
